# assay_text: AUC in Sprague-Dawley rat at 5 mg/kg, po measured after 24 hrs
# Type: ADME, organism-based
# Set-up: route oral, dose 5 mg/kg, time 24 hrs
# cond: in vivo
quantity_name: AUC at 24 h (µM·h)

{"columns": ["smiles_input", "unit_abbreviation", "value_observed"],
 "data": [
  ["CCN1C(=O)N(c2c(F)c(OC)cc(OC)c2F)Cc2cnc3c(c21)CC(=O)N3", "µM·h", 8.7]
]}

###

# assay_text: Volume of distribution at steady state in Sprague-Dawley rat at 2 mg/kg, po or 1 mg/kg, iv administered as cassette dose measured after 24 hrs
# Format: ADME, organism-based
# cond: in vivo, read-out: Vdss

{"columns": ["smiles_input", "unit_abbreviation", "Vd"],
 "data": [
  ["COc1cc(OC)c(F)c(N2Cc3cnc4c(c3N(C)C2=O)CC(=O)N4)c1F", "L/kg", 1.33],
  ["COc1cc(OC)c(F)c(N2Cc3cnc4[nH]c(C5CCN(C)CC5)cc4c3N(C)C2=O)c1F", "L/kg", 0.32],
  ["CCN1C(=O)N(c2c(F)c(OC)cc(OC)c2F)Cc2cnc3[nH]c(CN4CCOCC4)cc3c21", "L/kg", 1.85],
  ["CCN1CCC(Cc2cc3c4c(cnc3[nH]2)CN(c2c(F)c(OC)cc(OC)c2F)C(=O)N4C)CC1", "L/kg", 0.42],
  ["COc1cc(OC)c(F)c(N2Cc3cnc4[nH]ccc4c3N(C)C2=O)c1F", "L/kg", 0.82],
  ["CCN1CCN(CCc2cc3c4c(cnc3[nH]2)CN(c2c(F)c(OC)cc(OC)c2F)C(=O)N4C)CC1", "L/kg", 1],
  ["CCN1C(=O)N(c2c(F)c(OC)cc(OC)c2F)Cc2cnc3[nH]ncc3c21", "L/kg", 0.47],
  ["COc1cc(OC)c(F)c(N2Cc3cnc4[nH]ccc4c3N(CCO)C2=O)c1F", "L/kg", 0.75],
  ["COc1cc(OC)c(F)c(N2Cc3cnc4[nH]c(C(=O)N5CCN(C)CC5)cc4c3N(C)C2=O)c1F", "L/kg", 0.85]
]}
